Reported values of TGI for individual entries
test system: HCT-116 colon; assay: NCI tumour cell line growth inhibition, 48 h

// worked examples, TGI included
CN(C)CCCn1c2nc(=O)[nH]c(=O)c-2nc2cc(Cl)c(Cl)cc21 | 6.71 µM
COc1ccccc1-c1cc(=O)c2ccc(OC)c(OC)c2o1 | > 100 µM
Cn1c(=O)c2c(nc(Nc3ccc(Cl)cc3)n3c(=O)n(-c4ccccc4)c(=O)n23)n(C)c1=O | > 100 µM
COc1cc2c(cc1OCCCCOc1ccc(-c3nc4ccccc4s3)cc1)N=C[C@@H]1CCCN1C2=O | 1.62 µM
C#CCn1c(=O)c(Cl)cn(/C(=C/C(=O)OCC)C(=O)OCC)c1=O | 14.4 µM
O=c1cc(N=Nc2ccc(Cl)cc2)[nH]c(=O)[nH]1 | 3.87 µM

The recorded TGI with HCT-116 colon for CC(C)C1CC[C@H](C)C[C@@H]1OC(=O)C(C(=O)O[C@H]1C[C@@H](C)CCC1C(C)C)C(O)[C@@H]1OC(C)(C)O[C@H]1C1COC(C)(C)O1 (stereo partly drawn) was 23.9 µM

Lab entry: HCT-116 colon assay, molecule CC1C(=O)O[C@H]2C1CC[C@@]1(C)[C@H](O)CC[C@@]13C[C@]2(O)OO3 (stereo partly drawn) , TGI = > 100 µM

Form field TGI for item CCN(CC)CCCC(C)NC(=O)c1ccc2c(c1)C(=O)c1ccccc1C2=O (stereo not drawn) on HCT-116 colon: 51.7 µM

The observed TGI for C=CCN(c1cc(OC)c2[nH]cc(C)c2c1[N+](=O)[O-])S(C)(=O)=O when tested with HCT-116 colon stands at > 100 µM

Form: item Cc1[nH]nc2c1N=C(c1ccccc1Cl)c1cc([N+](=O)[O-])ccc1N2 ; test system HCT-116 colon; TGI: > 25 µM

The observed TGI for NNC(=O)/C(NC(=O)c1ccccc1)=C(\N)c1ccc(Cl)cc1 when tested with HCT-116 colon stands at > 100 µM

Readout TGI for CCOC(=O)C(O)(NC(=O)NC(O)(C(=O)OCC)C(F)(F)F)C(F)(F)F (stereo not drawn) , test system HCT-116 colon, was > 100 µM

Record N#Cc1c(N)nc(N2CCOCC2)c(C#N)c1-c1ccccc1Cl / HCT-116 colon, TGI recorded as > 100 µM

Tested on HCT-116 colon, the item COc1cc(OC)c(C(=O)/C=C/c2cccc(OC(C)=O)c2)cc1CC=C(C)C showed TGI equal to 9.78 µM

GET /values?item= CC(C)CN(CC(C)C)C(=O)C1CCCC[C@@H]1C(=O)O (stereo partly drawn) &system= HCT-116 colon returns TGI: > 100 µM
